Recorded IC50 values (Epidermal growth factor receptor (Homo sapiens)) are given below.
Answers are plain numbers, in µM.

compound="NC1CCc2c(c3cc(OCCc4ccc(O)cc4)ccc3n2CCCCCc2ccccc2)C1 (configuration not stated)" numeric_readout=1

--- query ---
Data request, read-out IC50, for NCCc1cn(Cc2ccc(-c3cccc(C(F)(F)F)c3)cc2)c2ccc(OCCc3ccc(O)cc3)cc12
1.06

====

For each of the compounds below, state its IC50.
Assayed system: Vascular endothelial growth factor receptor 3 (Homo sapiens, UniProt P35916)
Sequence (P35916 whole entry): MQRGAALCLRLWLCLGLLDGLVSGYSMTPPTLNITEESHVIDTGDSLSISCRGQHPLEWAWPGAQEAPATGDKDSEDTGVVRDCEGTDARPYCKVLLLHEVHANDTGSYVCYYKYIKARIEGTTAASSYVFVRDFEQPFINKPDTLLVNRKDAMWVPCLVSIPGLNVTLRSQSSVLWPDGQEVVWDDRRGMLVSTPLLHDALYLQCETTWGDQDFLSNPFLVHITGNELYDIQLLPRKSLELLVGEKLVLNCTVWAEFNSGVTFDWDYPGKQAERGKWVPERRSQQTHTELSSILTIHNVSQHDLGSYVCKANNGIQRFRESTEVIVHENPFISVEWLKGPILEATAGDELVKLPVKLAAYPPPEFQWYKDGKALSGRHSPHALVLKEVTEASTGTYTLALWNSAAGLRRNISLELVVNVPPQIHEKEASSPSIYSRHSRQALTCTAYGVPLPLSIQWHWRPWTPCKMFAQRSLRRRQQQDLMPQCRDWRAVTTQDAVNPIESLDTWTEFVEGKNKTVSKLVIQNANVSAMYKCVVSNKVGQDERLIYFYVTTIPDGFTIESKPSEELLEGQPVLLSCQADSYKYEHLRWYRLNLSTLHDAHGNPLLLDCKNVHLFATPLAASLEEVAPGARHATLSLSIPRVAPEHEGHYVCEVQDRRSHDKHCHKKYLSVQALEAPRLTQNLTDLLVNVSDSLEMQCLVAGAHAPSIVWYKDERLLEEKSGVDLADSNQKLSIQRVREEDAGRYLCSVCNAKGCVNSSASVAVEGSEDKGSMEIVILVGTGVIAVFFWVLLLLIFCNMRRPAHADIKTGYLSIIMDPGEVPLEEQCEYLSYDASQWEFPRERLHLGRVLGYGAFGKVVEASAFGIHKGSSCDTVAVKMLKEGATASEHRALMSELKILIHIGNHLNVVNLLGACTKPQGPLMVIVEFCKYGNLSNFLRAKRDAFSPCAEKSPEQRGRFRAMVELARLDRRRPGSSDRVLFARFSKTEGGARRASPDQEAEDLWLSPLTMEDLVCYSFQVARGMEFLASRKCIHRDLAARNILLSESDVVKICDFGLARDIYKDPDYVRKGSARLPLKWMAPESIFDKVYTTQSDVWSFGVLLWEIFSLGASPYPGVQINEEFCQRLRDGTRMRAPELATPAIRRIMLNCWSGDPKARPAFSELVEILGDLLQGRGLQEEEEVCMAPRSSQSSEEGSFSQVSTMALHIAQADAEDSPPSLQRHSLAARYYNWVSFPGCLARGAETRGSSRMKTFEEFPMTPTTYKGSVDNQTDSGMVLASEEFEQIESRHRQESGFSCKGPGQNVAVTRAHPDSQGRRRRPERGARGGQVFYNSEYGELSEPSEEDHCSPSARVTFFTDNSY
Procedure details: Noncompetitive inhibition of VEGFR3 after 30 mins by chemiluminescence ELISA in presence of 25 uM ATP
Give bare numbers, in nM.

compound="NC1CCc2c(c3cc(OCCc4ccc(O)cc4)ccc3n2CCCCCc2ccccc2)C1 (configuration not stated)" measure_name=IC50 numeric_readout=2170

Entry NCCc1cn(Cc2ccc(-c3cccc(C(F)(F)F)c3)cc2)c2ccc(OCCc3ccc(O)cc3)cc12 : reported IC50 = ?
3010

====

Procedure details: Cytotoxicity against HEPM cells after 24 hrs by WST1 assay
Format: cell-based
Condition context: Homo sapiens
Measure name: IC50 (µM)
Answers are plain numbers, in µM.

Would you please look over these solved cases?
compound=COc1ccc(-c2ccc(Cn3cc(CCN)c4cc(OCCc5ccc(O)cc5)ccc43)cc2)cc1 measure_name=IC50 unit_descriptor=µM numeric_readout=5.7
compound=NCCc1cn(Cc2ccc(-c3cccc(C(F)(F)F)c3)cc2)c2ccc(OCCc3ccc(O)cc3)cc12 measure_name=IC50 unit_descriptor=µM numeric_readout=6.64

Next item in the queue.
Consider the compound NC1CCc2c(c3cc(OCCc4ccc(O)cc4)ccc3n2CCCCCc2ccccc2)C1 (stereo not drawn) and give its measured IC50.
7.76

====

Assayed system: Vascular endothelial growth factor receptor 3 (Homo sapiens)
Procedure details: Noncompetitive inhibition of VEGFR3 after 30 mins by chemiluminescence ELISA in presence of 50 uM ATP
For each entry below, report its pIC50 value.
One number for each entry, as −log10 of the molar value.

compound=NCCc1cn(Cc2ccc(-c3cccc(C(F)(F)F)c3)cc2)c2ccc(OCCc3ccc(O)cc3)cc12 assayed_system="Vascular endothelial growth factor receptor 3 (Homo sapiens)" measure_name=pIC50 numeric_readout=5.53

Here is another compound to look at.
Find pIC50 (Vascular endothelial growth factor receptor 3 (Homo sapiens)) for the entry NC1CCc2c(c3cc(OCCc4ccc(O)cc4)ccc3n2CCCCCc2ccccc2)C1 (configuration not stated)
5.68

====

Assayed system: Insulin-like growth factor 1 receptor (Homo sapiens, UniProt P08069)
Sequence (P08069 31-736 limits assumed): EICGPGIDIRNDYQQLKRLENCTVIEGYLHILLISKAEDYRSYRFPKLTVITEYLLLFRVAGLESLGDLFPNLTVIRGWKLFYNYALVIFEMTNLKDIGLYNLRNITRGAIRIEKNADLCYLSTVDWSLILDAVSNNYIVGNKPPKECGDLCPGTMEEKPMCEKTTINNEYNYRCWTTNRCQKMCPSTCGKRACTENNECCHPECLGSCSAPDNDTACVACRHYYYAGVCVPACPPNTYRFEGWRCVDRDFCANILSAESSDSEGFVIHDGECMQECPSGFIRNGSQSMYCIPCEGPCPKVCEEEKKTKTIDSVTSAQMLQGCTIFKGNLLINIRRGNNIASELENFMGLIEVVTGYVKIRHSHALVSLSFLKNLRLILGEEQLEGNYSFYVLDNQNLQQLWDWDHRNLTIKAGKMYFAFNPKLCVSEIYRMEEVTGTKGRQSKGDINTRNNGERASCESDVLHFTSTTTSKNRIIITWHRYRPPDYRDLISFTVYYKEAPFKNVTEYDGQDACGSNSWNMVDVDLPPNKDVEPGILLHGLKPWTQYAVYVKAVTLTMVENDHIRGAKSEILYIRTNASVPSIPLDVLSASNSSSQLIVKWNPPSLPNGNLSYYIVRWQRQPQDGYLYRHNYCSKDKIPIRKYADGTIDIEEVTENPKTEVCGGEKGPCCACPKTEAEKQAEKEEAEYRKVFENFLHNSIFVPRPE
Sequence (P08069 741-1367 limits assumed): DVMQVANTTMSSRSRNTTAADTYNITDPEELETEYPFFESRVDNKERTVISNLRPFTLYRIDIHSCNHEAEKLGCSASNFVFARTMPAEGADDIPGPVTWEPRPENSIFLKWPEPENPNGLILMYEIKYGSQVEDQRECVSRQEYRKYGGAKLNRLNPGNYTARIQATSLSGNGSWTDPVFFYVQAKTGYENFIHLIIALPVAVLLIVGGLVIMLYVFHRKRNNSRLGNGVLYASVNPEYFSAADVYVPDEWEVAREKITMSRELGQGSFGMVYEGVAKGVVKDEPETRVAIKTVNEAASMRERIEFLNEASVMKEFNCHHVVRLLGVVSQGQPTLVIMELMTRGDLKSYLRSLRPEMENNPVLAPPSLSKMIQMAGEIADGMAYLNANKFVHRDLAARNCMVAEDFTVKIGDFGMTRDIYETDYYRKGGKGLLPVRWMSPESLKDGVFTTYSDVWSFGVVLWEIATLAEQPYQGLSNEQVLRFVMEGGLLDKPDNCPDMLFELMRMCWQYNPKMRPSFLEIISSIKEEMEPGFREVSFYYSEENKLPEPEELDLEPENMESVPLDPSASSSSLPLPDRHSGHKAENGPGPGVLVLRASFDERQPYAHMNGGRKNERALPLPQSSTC
Procedure details: Noncompetitive inhibition of IGF1R after 30 mins by chemiluminescence ELISA in presence of 25 uM ATP
Measure name: pIC50
One number for each entry, as −log10 of the molar value.

compound="NC1CCc2c(c3cc(OCCc4ccc(O)cc4)ccc3n2CCCCCc2ccccc2)C1 (configuration not stated)" assayed_system="Insulin-like growth factor 1 receptor (Homo sapiens, UniProt P08069)" numeric_readout=6.03

Kindly review the next compound as well.
Query the reported pIC50 for Insulin-like growth factor 1 receptor (Homo sapiens, UniProt P08069); item: NCCc1cn(Cc2ccc(-c3cccc(C(F)(F)F)c3)cc2)c2ccc(OCCc3ccc(O)cc3)cc12
5.97

====

Assayed system: UniProt:P35968
Sequence (P35968 whole entry): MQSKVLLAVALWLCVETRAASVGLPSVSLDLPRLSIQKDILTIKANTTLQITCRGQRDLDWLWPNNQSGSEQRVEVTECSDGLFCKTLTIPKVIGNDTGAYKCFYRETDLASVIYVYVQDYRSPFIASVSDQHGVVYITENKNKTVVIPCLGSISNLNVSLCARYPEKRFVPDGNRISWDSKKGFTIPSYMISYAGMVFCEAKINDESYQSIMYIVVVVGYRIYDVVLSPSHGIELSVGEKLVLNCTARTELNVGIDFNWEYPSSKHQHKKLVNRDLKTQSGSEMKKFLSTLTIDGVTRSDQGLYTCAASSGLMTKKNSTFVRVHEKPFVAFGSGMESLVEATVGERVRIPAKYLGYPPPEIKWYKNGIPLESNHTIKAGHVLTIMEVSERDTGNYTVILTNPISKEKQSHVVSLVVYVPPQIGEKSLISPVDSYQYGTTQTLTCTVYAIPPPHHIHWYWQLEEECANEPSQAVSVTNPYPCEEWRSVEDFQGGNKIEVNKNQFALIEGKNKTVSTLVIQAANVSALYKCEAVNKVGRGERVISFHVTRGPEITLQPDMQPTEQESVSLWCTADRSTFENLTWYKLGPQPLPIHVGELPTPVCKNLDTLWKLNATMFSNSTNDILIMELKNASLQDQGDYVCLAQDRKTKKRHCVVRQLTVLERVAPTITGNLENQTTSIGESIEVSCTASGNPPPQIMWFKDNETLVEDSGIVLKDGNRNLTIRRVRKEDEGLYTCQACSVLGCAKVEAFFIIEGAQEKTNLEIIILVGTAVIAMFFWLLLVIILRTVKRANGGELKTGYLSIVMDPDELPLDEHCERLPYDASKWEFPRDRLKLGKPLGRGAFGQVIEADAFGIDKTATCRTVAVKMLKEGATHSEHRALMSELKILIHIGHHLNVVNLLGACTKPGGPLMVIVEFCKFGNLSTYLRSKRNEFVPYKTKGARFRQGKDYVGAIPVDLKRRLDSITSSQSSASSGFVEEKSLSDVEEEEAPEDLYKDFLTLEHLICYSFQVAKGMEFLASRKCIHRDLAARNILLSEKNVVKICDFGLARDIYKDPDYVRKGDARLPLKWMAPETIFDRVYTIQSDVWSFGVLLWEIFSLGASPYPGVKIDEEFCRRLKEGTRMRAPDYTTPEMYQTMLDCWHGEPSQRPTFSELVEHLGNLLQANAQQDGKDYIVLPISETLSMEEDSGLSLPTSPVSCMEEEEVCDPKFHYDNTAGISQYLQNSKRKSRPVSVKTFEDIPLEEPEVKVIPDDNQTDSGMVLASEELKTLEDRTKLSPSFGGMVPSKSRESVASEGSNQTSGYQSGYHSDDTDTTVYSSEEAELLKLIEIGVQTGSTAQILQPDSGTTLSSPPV
Procedure details: Noncompetitive inhibition of VEGFR2 after 30 mins by chemiluminescence ELISA in presence of 250 uM ATP
Measure name: pIC50
Numbers only, as −log10 of the molar value.

compound=NCCc1cn(Cc2ccc(-c3cccc(C(F)(F)F)c3)cc2)c2ccc(OCCc3ccc(O)cc3)cc12 measure_name=pIC50 numeric_readout=5.82

Now let's try a different one.
For NC1CCc2c(c3cc(OCCc4ccc(O)cc4)ccc3n2CCCCCc2ccccc2)C1 (configuration not stated) , what is its reported pIC50?
5.98
